System: COLO 205 colon
Test: NCI tumour cell line growth inhibition, 48 h
TGI values, listed per item
Value expressed in µM; do not type the unit.

Examples from the recorded data:
{"CHEMICAL STRING": "CC(=O)[C@@]1(O)[C@H](C)C[C@H]2[C@@H]3C=C(C)C4=Cc5c(cnn5-c5ccccc5)C[C@]4(C)[C@H]3[C@@H](O)C[C@@]21C", "TGI (µM)": 3.93}
{"CHEMICAL STRING": "CC(=O)O[C@H]1C(=O)[C@@]2(C)[C@H]([C@H](OC(=O)c3ccccc3)[C@]3(O)C[C@H](OC(=O)[C@H](O)[C@@H](NC(=O)C(C)(C)C)c4ccccc4)C(C)=C1C3(C)C)[C@]1(OC(C)=O)CO[C@@H]1C[C@@H]2O", "TGI (µM)": 0.251}
{"CHEMICAL STRING": "CN(C)CCCNC(=O)c1cncnc1Nc1ccc(OCc2cccc(F)c2)c(Cl)c1", "TGI (µM)": 3.57}

Which value of TGI has been reported for CN1CCN(CCCCN2c3ccccc3Sc3cc(N=[N+]=[N-])ccc32)CC1 in the records?
3.25

What does the data say about its TGI? Entry: O=C(NO)c1ccc(Cn2c(=O)n(-c3ccccc3F)c(=O)c3ccccc32)cc1
3.76

// TGI lookup, key: Cc1ccc(-c2nc(N3CCCNCC3)c3oc(-c4ccccc4)nc3n2)cc1
3.5

Requested read-out: TGI. Entry: CCCCC(=O)OC[n+]1ccc2c(C)c3[nH]c4ccccc4c3c(C)c2c1
2.22

Name the recorded TGI for COc1cc(/C=C\c2cccnc2)cc(OC)c1OC .
69

* * *

System: CCRF-CEM leukemia
Test: NCI tumour cell line growth inhibition, 48 h; in the data active means GI50 below about 0.43 µM; inactive means the rest
The reply should be one of these categories: YES for active, NO for inactive

# count of solved cases: 5
{"MOLECULE": "COc1cc(-c2nn(-c3cccc(NC(=O)c4ccc(N5CCOCC5)c(C(F)(F)F)c4)c3)cc2-c2ccncc2)ccc1Cl", "ASSIGNED CLASS": "YES"}
{"MOLECULE": "C[n+]1ccc(-c2c3nc(c(-c4cc[n+](C)cc4)c4ccc([n-]4)c(-c4cc[n+](C)cc4)c4nc(c(-c5cc[n+](C)cc5)c5ccc2[n-]5)C=C4)C=C3)cc1.[I-].[Zn+2]", "ASSIGNED CLASS": "NO"}
{"MOLECULE": "NC1=NCCN1CC(=O)O", "ASSIGNED CLASS": "NO"}
{"MOLECULE": "O=S(=O)(Nc1cc(Cl)ccc1Cl)c1ccc(-c2cnc(C3CC3)o2)cc1", "ASSIGNED CLASS": "NO"}
{"MOLECULE": "CCN(CC)CCCC(C)N=c1cc(Nc2cc(=NC(C)CCCN(CC)CC)c3cc(OC)ccc3o2)oc2ccc(OC)cc12 (centres undefined)", "ASSIGNED CLASS": "NO"}

Just curious, what result did C[C@H](CCCNCCCNCCCN)[C@H]1CC[C@H]2[C@@H]3[C@H](OCCCN)C[C@H]4C[C@H](OCCCN)CC[C@]4(C)[C@H]3C[C@H](OCCCN)[C@]12C get here?
NO

Hi, sorry to bother you, what did the test record for O=C(CCC(C(=O)c1ccccc1)c1ccccc1)c1ccccc1 (centres undefined) ?
NO

Please share the test call associated with C=CN(C)S(C)(=O)=O .
NO

What outcome does the record of this test show for COc1cccc2c1c(C1=C(c3cn(C)c4ccccc34)C(=O)NC1=O)cn2C ?
NO
